// data source = ChEMBL document CHEMBL1201862

test system: MDA-MB-231; assay: NCI tumour cell line growth inhibition, 48 h
Calls of active or inactive are those of the source. Rule as the data show it: active = GI50 up to about 1.1 µM and inactive = higher.
Give your call using only these classes: true (1) (active), false (0) (inactive)

Worked examples follow.
{"compound": "O=C1C(=O)N(c2cccc(C(F)(F)F)c2)C(=S)N1c1ccccc1", "system tested": "MDA-MB-231", "category": "false (0)"}
{"compound": "CN1CCN(Cc2cc3c(nn2)-c2ccccc2C3=O)CC1", "system tested": "MDA-MB-231", "category": "false (0)"}
{"compound": "Cc1cnc2[nH]c(-c3cccc(Cl)c3)cc(=O)c2c1", "system tested": "MDA-MB-231", "category": "true (1)"}
{"compound": "COc1ccc(C2=CC(C(C)=C(C(N)=O)C(N)=O)C=C(c3ccc(Br)cc3)C2)c(OC)c1 (stereo unspecified)", "system tested": "MDA-MB-231", "category": "false (0)"}

Exam item: Could you check what this test reported for Cc1ccc(/N=N/c2c(O)ccc3cc(S(=O)(=O)O)cc(S(=O)(=O)O)c23)cc1 ?
Marked response: false (0)

Exam item: Would you kindly repeat that for c1csc(-c2cscc2-c2ccsc2)c1 ?
Marked response: false (0)

Exam item: Also COc1cc(C(c2cccc3ccccc23)N2C(=O)CCC2C(=O)NCc2ccccc2)cc(OC)c1OC (stereo unspecified) ?
Marked response: false (0)

Exam item: Input NC(=O)C(=CN1C(=O)CC(=O)NC1=S)C(N)=O
Marked response: false (0)

Exam item: Could you do the same for COc1ccc(CC2c3cc(Oc4cc(CC5c6cc(OC)c(OC)cc6CCN5C)ccc4O)c(OC)cc3CCN2C)cc1 (stereo unspecified) , please?
Marked response: false (0)

Exam item: // query: O=C(/C=C1\C[C@H]2C=Nc3ccccc3C(=O)N2C1)NCCCCNC(=O)/C=C1\C[C@H]2C=Nc3ccccc3C(=O)N2C1
Marked response: true (1)

Exam item: Okay, and O=S(=O)(NC(c1ccccc1)(c1cc2ccccc2[nH]1)c1cc2ccccc2n1S(=O)(=O)c1ccccc1)c1ccccc1 (stereo unspecified) ?
Marked response: false (0)

Exam item: What do you get for Cc1cc(Cc2cc(C)cc(C(C)(C)C)c2O)c(O)c(Cc2cc(C)cc(C(C)(C)C)c2O)c1 ?
Marked response: false (0)

Exam item: Proceed to CCOC(=O)c1c(NC(=O)c2cccs2)sc2c1CCCC2
Marked response: false (0)

Exam item: Okay, and NS(=O)(=O)c1ccc(NCc2cnc3ccccc3n2)cc1 ?
Marked response: false (0)

Exam item: # iterate: O=C(Nn1cnn2c(=O)c3ccccc3nc2c1=O)c1ccccc1
Marked response: false (0)

Exam item: Another: Oc1ccc(SCc2cc(O)c(O)c(O)c2)cc1
Marked response: false (0)

Exam item: Could you do the same for COc1cc(S(=O)(=O)Nc2nc(-c3ccc(/N=C/c4cccs4)cc3)cs2)ccc1Cl , please?
Marked response: false (0)

Exam item: Also, CC1=Nc2ccccc2OC(C)=C1/N=N/c1ccc2[nH]c(C)nc2c1 please.
Marked response: false (0)

Exam item: Now the compound CN(C)Cc1cc(C(=O)/C=C/c2ccc(/C=C/C(=O)c3cc(CN(C)C)c(O)c(CN(C)C)c3)cc2)cc(CN(C)C)c1O
Marked response: false (0)

Exam item: Query O=C(Nc1ccccc1F)c1c(O)nc2sccn2c1=O next
Marked response: false (0)

Exam item: Item: CC(C)(C)OC(=O)NCCCNC1(c2cc3ccccc3s2)CCCCC1
Marked response: false (0)
